Target or system Carbonic anhydrase 12 (Homo sapiens, UniProt O43570); recorded quantity Ki.
One number for each entry, in nM.

Consider the reported Ki for these compounds:
>>> numeric_result("COc1ccc(CNc2ccc(S(N)(=O)=O)cc2)cc1")
427
>>> numeric_result("NS(=O)(=O)c1ccc(/N=C/c2ccccc2)cc1")
11.1
>>> numeric_result("CN(C)c1ccc(/C=N/c2ccc(S(N)(=O)=O)cc2)cc1")
8.8

# evaluate next
Incoming: Find the recorded Ki belonging to "Cc1ccc(/C=N/c2ccc(S(N)(=O)=O)cc2)cc1" and report it.
Outgoing: 9.9

* * *

So I've got Ki readings for Carbonic anhydrase 1 (Homo sapiens, UniProt P00915), take a look.
Numbers only, in nM.

>>> numeric_result("CN(C)c1ccc(/C=N/c2ccc(S(N)(=O)=O)cc2)cc1")
421

Incoming: Name the recorded Ki for "COc1ccc(CNc2ccc(S(N)(=O)=O)cc2)cc1" .
Outgoing: 21.9

All figures here come from ChEMBL document CHEMBL3758126.
